Target: human MASP-2 (in normal human serum) (human, UniProt O00187 16-686)
Sequence (O00187 16-686 limits assumed): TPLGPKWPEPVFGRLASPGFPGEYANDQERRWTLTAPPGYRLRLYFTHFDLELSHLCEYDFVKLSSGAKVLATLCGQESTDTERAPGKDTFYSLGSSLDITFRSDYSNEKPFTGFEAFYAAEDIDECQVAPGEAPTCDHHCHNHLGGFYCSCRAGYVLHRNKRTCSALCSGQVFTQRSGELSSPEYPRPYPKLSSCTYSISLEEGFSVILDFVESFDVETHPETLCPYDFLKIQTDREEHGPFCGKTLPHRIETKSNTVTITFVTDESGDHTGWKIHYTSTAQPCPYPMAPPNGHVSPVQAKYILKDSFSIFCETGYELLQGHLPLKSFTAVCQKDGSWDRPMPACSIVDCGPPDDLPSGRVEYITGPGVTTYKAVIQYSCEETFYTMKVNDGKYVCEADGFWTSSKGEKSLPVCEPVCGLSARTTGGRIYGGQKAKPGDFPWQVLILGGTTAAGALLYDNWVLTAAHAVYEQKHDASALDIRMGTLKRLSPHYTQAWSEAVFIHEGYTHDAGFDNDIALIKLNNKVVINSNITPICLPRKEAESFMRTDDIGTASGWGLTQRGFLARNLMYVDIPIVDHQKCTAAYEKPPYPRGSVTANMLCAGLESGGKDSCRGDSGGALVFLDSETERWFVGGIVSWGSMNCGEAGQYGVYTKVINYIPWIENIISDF
Assay: cell-based or functional assay
Where no end group is shown, it is not given here.
# note: boundary value 20 fold vs EVO2 maps to Not satisfied; Relative potency, lectin pathway, human serum below it maps to Satisfied

Q: Item EVO2b (designed binder, not fully specified; cysteine pairing not given here, Modified TFPI-D2 Kunitz domain; made as m1) KPDFCFLEEDPGPCRAVKRRYFYNNQTKQCERFGYGGCLGNMNNFETLEECKNICEDG : Relative potency, lectin pathway, human serum beneath 20 fold vs EVO2, strictly?
Result: Satisfied

Sourced from patent US20260098080A1
